# z-score listing for each entry below
# assayExplanation: P. aeruginosa biofilm formation inhibitors, primary screen, PAO1 strain, BacTiter-Glo luminescence, LB-PBS (AID 1144)
# assayConditions: 12 h, higher = more signal
Please reply with the number alone, leaving off any unit.

In [3]: df
Out[3]:
                                  smilesstr  parametermeasured  observedvalue
0  C=C(COC)/C(=C/C[C@H](OC(=O)c1ccncc1)c1cccc(OCCO)c1)c1cnc2ccccc2c1            z-score         0.0918

Quick note, z-score for C#CCN=C(N)N landed at 0.214

Quick note, z-score for CC(C)CNC(=O)[C@@]1(C)c2ccccc2C(=O)N(Cc2cc(F)cc(C(F)(F)F)c2)[C@H]1c1ccc(CO)cc1 landed at -0.428

Quick note, z-score for COC(=O)[C@@]1(Cc2ccccc2)[C@@H]2[C@@H](CC(=O)[C@H]2CC(=O)C(=O)N(C)C)CN1C(=O)c1ccccc1 landed at -0.621

Quick note, z-score for Cc1c(NC(=O)/C(C#N)=C/c2ccc(Cl)cc2)c(=O)n(-c2ccccc2)n1C landed at -1.04

Quick note, z-score for COc1ccc(CCNC(=O)[C@@]2(Sc3ccc(C)cc3)CC(=O)N(C(C)C)[C@@H]2c2ccc(CO)cc2)cc1 landed at 0.305

Quick note, z-score for COC(=O)[C@@]1(Cc2ccc(OC)cc2)[C@@H]2[C@@H](CC(=O)[C@H]2CC(=O)C(=O)N2CCCC2)CN1C(=O)c1ccccc1 landed at -0.98

====

# composite z-score listing for each entry below
# Test system: wheat germ agglutinin (Triticum aestivum), Alexa647-labelled
# assayExplanation: wheat germ agglutinin binders on compound microarrays, profiling panel, artefact control for SMM control-protein annotation, biochemical, small-molecule microarray, 635/667 nm fluorescence (AID 1140);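 also: score merges 667 nm feature emission with signal to noise over triplicate slides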
# assayConditions: WGA-A647 binding, 635 nm fluorescence, higher = more signal
Please reply with the number alone, leaving off any unit.

Quick note, composite z-score for CC1CC/C=C\[C@H]2OC34C=CCN(CCN5CCOCC5)C(=O)[C@H]3N(CCCCCCO)C(=O)[C@@H]4C2C(=O)O1 (some centres undefined) landed at -0.7

Quick note, composite z-score for COCCOC(=O)N1C(=O)[C@@]2(c3cc(C#Cc4ccc(OC)cc4)ccc31)[C@H](c1ccc(OCCO)cc1)N1[C@H](c3ccccc3)[C@H](c3ccccc3)OC(=O)[C@H]1[C@@H]2C(=O)N1CCCCCCC1 landed at 1.01

Quick note, composite z-score for COCCCNC(=O)[C@@H]1c2ccccc2C(=O)N(C2CCCCC2)[C@H]1c1ccc(CO)cc1 landed at -0.365

Quick note, composite z-score for COc1ccc(C(O)C2C=CC3C(=O)N(C)C(=O)C3N2Nc2ccc([N+](=O)[O-])cc2[N+](=O)[O-])cc1OCc1ccccc1 (centres undefined) landed at 1.15

====

# composite z-score listing for each entry below
# assayExplanation: small-molecule microarray binders of probe aWnt5a, primary screen, biochemical, biotinylated probe, 635/667 nm fluorescence (AID 1113);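 also: score merges 667 nm fluorescence intensity with signal-to-noise per printed feature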
# assayConditions: higher = more signal
Please reply with the number alone, leaving off any unit.

Study these solved cases before continuing.
compound	composite z-score
C=CCC(OC(C)=O)[C@@H]1[C@@H](N(Cc2cccc3ccccc23)C(=O)c2ccc(-c3ccccc3)cc2)c2cc(OCCCO)ccc2N1C(=O)c1ccc2ccccc2n1 (stereo not given in full)	-0.0685
N#Cc1ccc(C(O)C2C=CC3C(=O)NC(=O)C3N2Nc2ccccn2)cc1 (stereo not given)	-0.178
CC(C)c1ccc(NN2C(C(O)C(C)C)C=CC3C(=O)N(c4ccccc4)C(=O)C32)cc1 (stereo not given)	0.168

Quick note, composite z-score for CC(C)CNC(=O)[C@@H]1c2ccccc2C(=O)N(Cc2ccccc2)[C@H]1c1ccc(CO)cc1 landed at -0.253

Quick note, composite z-score for CC(C)C(=C=CC[C@@H](O)c1ccccc1OCCO)C[C@@H](O)c1cc(Cl)cc(Cl)c1O landed at -0.0735

Quick note, composite z-score for COCCOC(=O)N1C(=O)[C@@]2(c3cc(C#Cc4ccc(OC)cc4)ccc31)[C@H](C(=O)Nc1nc3ccccc3s1)[C@H]1C(=O)O[C@H](c3ccccc3)[C@H](c3ccccc3)N1[C@@H]2c1ccccc1OCCO landed at -0.299

Quick note, composite z-score for C#CCN(C/C=C/c1ccccc1)[C@H](CO[Si](C)(C)C(C)(C)C)c1ccccc1 landed at -0.0403

====

# targetEntity: Torsin-1A (Homo sapiens)
# assayExplanation: small-molecule binders of mutant TOR1A in lysate, primary screen, cell lysate, small-molecule microarray, COS7 lysate, 635/667 nm fluorescence (AID 1150);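 also: score pools 667 nm emission and signal to noise measuring lysate protein binding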
# assayConditions: COS7 hTOR1A mutant lysate, 635 nm fluorescence, higher = more signal
parameterMeasured: composite z-score
Please reply with the number alone, leaving off any unit.

Study these solved cases before continuing.
                                   molecule  observedvalue
0  CCOC(=O)C[C@H]1[C@H](OC(=O)c2ccc(-c3ccccc3)cc2)[C@@H](NC(=O)c2ccc3ccccc3c2)c2cc(OCCCO)ccc2N1C(=O)c1ccccc1          0.988
1  CC(C)C[C@@H]1NC(=O)[C@@H]2C[C@H](C(=O)NCCCC[N+](C)(C)C)[C@H](c3ccc(O)cc3)N2C1=O            1.2
2  COC(=O)[C@@]1(Cc2ccc(F)cc2)[C@H]2c3cc(C(=O)N(C)C)n(CCN4CCOCC4)c3C[C@H]2CN1C(=O)c1ccccc1           2.17
3  C[N+](C)(C)CCCCCCNC(=O)[C@@H]1C[C@@H]2C(=O)N[C@@H](Cc3ccccc3)C(=O)N2[C@@H]1c1ccc(O)cc1          0.984
4  COCCCN1C(=O)[C@@]2(Cc3ccccc31)c1ccccc1C(=O)N(Cc1ccccc1OC)[C@H]2c1ccc(CO)cc1         -0.274
5  O=C1NC(=O)C2C1C=CC(C(O)c1cccc(O)c1)N2Nc1ccc(Cl)cc1Cl (stereo not drawn)           0.25

Known value: Torsin-1A (Homo sapiens) composite z-score of the molecule Cc1ccc(S[C@]2(C(=O)NCCCN(C)C)CC(=O)N(Cc3ccccc3Cl)[C@@H]2c2ccc(CO)cc2I)cc1 equals -0.679

Known value: Torsin-1A (Homo sapiens) composite z-score of the molecule CC(C)(C)OC(=O)CC[C@]1(C(N)=O)N=C(c2ccc(OCCCO)cc2)O[C@H]1c1ccccc1CN=[N+]=[N-] equals 1.1

====

# targetEntity: Left-right determination factor 2 (Homo sapiens) (UniProt O00292)
# Sequence (O00292 whole entry, looked up): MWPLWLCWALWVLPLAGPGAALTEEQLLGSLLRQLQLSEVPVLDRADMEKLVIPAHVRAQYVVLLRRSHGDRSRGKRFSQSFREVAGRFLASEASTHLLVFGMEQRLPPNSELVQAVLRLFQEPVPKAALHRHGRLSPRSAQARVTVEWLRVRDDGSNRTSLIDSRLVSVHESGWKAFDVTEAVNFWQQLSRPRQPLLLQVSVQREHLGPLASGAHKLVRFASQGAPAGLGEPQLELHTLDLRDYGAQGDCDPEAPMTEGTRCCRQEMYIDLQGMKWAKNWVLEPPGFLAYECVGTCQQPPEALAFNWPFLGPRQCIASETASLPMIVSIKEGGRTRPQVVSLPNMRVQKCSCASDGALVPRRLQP
# assayExplanation: LEFTY2 binders on small-molecule microarrays, primary screen, biochemical, small-molecule microarray, 635 nm fluorescence scan (AID 1110)
# assayConditions: LEFTY2 binding, higher = more signal
# composite z-score listing for each entry below
Please reply with the number alone, leaving off any unit.

Study these solved cases before continuing.
compound	parameterMeasured	observedValue
COCCOC(=O)N1C(=O)[C@@]2(c3cc(C#CC4(O)CCCCCC4)ccc31)[C@H](C(=O)NC[C@H](O)c1ccccc1)[C@H]1C(=O)O[C@H](c3ccccc3)[C@H](c3ccccc3)N1[C@@H]2c1ccc(O)cc1	composite z-score	0.0174
C=CC[C@]1(C(=O)N(C)C)COC(c2ccc(OCCCO)cc2)=N1	composite z-score	-0.616
C=CCOC(=O)[C@@H]1[C@H]2C(=O)O[C@H](c3ccccc3)[C@H](c3ccccc3)N2[C@H](c2ccc(OCCOC(=O)[C@H]3C[C@H]4C(=O)NCC(=O)N4[C@H]3c3ccc(O)cc3)cc2)[C@@]12C(=O)Nc1ccc(I)cc12	composite z-score	0.606
CC(=O)c1ccc(C(O)C2C=CC3C(=O)NC(=O)C3N2Nc2ccc(Cl)cc2Cl)cc1 (stereo unspecified)	composite z-score	-0.16
C=C(COC)/C(=C/C[C@H](OC(=O)c1ccncc1)c1ccc(OCCO)cc1)c1cc(C(=O)OC)ccc1OC	composite z-score	0.431

Quick note, composite z-score for COCCOC(=O)N1C(=O)[C@@]2(c3cc(C#CC4(O)CCCCCC4)ccc31)[C@H](c1ccc(OCCO)cc1)N1[C@H](c3ccccc3)[C@H](c3ccccc3)OC(=O)[C@H]1[C@@H]2C(=O)N1CCCCCCC1 landed at 0.725

Quick note, composite z-score for COC(=O)c1c(CC[C@@H](CO)NC(=O)N[C@@H](Cc2ccccc2)Cn2cc(-c3cncn3C)nn2)oc(C(C)=O)c1C(=O)OC landed at -0.338

Quick note, composite z-score for COc1ccc(CCNC(=O)[C@@]2(Sc3ccc(C)cc3)CC(=O)N(C(C)C)[C@@H]2c2ccc(CO)cc2)cc1 landed at -2.73

Quick note, composite z-score for COc1ccccc1CN1C(=O)c2ccccc2[C@@H](C(=O)NCCCN(C)C)[C@@H]1c1ccc(CO)cc1 landed at 0.155

Quick note, composite z-score for COc1cccc(OC)c1C(=O)O[C@H]1[C@@H]2OC(=O)[C@H](Cc3cccc(Br)c3)C/C=C/C[C@@H](Cc3cccc(Br)c3)C(=O)O[C@H]2[C@@H](OC)O[C@@H]1CO landed at 0.309

Quick note, composite z-score for C=CCC(OC(C)=O)[C@@H]1[C@@H](N(Cc2ccc(-c3cccc(C(F)(F)F)c3)o2)C(=O)Cc2ccc(F)cc2)c2cc(OCCCO)ccc2N1C(=O)c1ccc2ccccc2n1 (stereo partly specified) landed at -0.0009
